B1: TPR t1 (parent)
chain: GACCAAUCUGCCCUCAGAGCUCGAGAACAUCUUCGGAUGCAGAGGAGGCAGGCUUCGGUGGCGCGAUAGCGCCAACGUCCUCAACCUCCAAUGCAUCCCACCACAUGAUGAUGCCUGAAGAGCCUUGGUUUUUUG

# Variants of: B1
# assayName: polymerase ribozyme fitness, log enrichment relative to wild type (log ratio); higher = more active; in vitro selection for triplet polymerase activity
propertyName: polymerase ribozyme fitness (log ratio)
Number, no unit, nothing else.

Worked cases, polymerase ribozyme fitness (log ratio) given:
>>> print(df.to_string())
              mutantname  quantitativeresult
0  A66C G69A C123U U126A               -4.63
1               C4A C98U                -2.2
2        C13A C85U A100C               -3.76
3               C8A C85U              -0.102
4  G10U A37C G113U U129A               -5.04

// lookup polymerase ribozyme fitness (log ratio) for U112C U129C
0.894

// lookup polymerase ribozyme fitness (log ratio) for G71A C114U G127U
-5.52
